system-under-test: human F508del-CFTR (Homo sapiens, UniProt P13569, DEL508-508)
Sequence (P13569 with tags, fused parts or gaps DEL508-508): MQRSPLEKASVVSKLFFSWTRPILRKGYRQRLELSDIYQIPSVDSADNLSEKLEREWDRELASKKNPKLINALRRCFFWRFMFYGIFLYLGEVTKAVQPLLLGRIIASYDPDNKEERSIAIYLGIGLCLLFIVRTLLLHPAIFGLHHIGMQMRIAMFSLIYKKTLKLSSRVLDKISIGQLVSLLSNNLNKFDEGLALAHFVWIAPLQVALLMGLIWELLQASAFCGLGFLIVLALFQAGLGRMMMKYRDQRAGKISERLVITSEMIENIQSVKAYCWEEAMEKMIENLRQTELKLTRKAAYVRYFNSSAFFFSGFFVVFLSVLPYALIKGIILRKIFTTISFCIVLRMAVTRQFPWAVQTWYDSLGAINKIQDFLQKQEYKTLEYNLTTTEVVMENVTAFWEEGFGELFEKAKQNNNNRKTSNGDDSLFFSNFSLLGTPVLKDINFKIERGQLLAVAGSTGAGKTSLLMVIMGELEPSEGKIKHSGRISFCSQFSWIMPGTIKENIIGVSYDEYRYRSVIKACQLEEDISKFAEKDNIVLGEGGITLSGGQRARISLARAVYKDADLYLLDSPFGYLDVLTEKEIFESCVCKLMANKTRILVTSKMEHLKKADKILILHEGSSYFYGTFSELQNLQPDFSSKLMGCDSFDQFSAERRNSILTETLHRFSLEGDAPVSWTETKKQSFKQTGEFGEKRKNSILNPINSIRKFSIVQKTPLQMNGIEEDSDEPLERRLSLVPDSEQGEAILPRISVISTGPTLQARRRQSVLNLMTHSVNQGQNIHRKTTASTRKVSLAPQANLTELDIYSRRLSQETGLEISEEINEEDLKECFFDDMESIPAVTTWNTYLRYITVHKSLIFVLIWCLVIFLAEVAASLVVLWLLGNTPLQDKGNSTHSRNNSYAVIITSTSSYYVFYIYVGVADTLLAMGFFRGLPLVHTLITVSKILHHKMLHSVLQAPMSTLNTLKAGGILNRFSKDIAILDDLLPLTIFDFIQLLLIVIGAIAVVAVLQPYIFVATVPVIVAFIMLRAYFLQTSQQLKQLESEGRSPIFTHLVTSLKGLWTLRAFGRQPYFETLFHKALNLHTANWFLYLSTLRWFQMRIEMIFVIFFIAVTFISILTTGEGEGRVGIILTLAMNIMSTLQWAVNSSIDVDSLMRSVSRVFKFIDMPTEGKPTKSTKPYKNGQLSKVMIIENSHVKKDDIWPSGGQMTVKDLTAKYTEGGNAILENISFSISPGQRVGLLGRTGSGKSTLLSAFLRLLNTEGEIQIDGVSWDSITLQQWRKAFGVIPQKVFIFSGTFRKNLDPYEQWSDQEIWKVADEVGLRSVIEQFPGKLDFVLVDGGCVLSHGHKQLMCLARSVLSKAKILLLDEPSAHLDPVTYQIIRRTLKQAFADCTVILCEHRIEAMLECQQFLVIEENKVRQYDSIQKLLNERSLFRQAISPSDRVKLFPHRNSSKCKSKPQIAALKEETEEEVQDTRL
protocol-description: F508del-CFTR cell surface expression (corrector activity), DiscoveRx ß-galactosidase complementation chemiluminescence assay in recombinant U2OS cell line;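 further: U2OS cells co-expressing ProLink-tagged F508del-CFTR and a membrane-anchored enzyme acceptor, where more surface CFTR restores β-galactosidase activity measured by chemiluminescence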
run-parameters: U2OS, in relation to Emax of corrector lumacaftor (=100%); arithmetic mean values
Please note: Emax exactly at 300% is not satisfied. Only values below 300% get satisfied.

molecule	assigned-category
CC(C)C[C@H]1C(=O)N(C)[C@H](C)C(=O)N[C@H](Cc2ccccc2)COc2cnc3ccccc3c2C(=O)N[C@H](C(=O)NCCc2cc(C3CC3)no2)CC(=O)N1C [Example 574]	not satisfied
COc1cccc(CCNC(=O)[C@@H]2CC(=O)N(C)[C@@H](CC(C)C)C(=O)N3CCN(S(=O)(=O)Cc4cccc5cccnc45)C[C@@H]3C(=O)N[C@H](Cc3ccccc3)COc3ccc4ccccc4c3C(=O)N2)c1 [Example 738]	satisfied
CC(C)C[C@H]1C(=O)N2CCCC[C@@H]2C(=O)N[C@H](Cc2ccccc2)COc2ccc3c(c2C(=O)N[C@H](C(=O)NCCc2c(F)cccc2F)CC(=O)N1C)OCC3 [Example 491]	satisfied
CC(C)C[C@H]1C(=O)N(C)C2(CC2)C(=O)N[C@H](Cc2ccccc2)COc2ncc3ccccc3c2C(=O)N[C@H](C(=O)NCCc2cc(C3CC3)no2)CC(=O)N1C [Example 556]	not satisfied
